Measurement Notes: Tmax in mouse at 100 mg/kg, ip administered through DMSO
Assay type: ADME, organism-based
Applied Conditions: in vivo
Assay Endpoint: Tmax (h)
I only need the number, in h, no unit after it.

Tell me the measured Tmax of O=S(=O)(NCCCN1c2ccccc2CCc2ccc(Cl)cc21)c1ccc(OC(F)(F)F)cc1 , please.
4

---

Entries and their bioavailability values follow.
Measurement Notes: Oral bioavailability in mouse at 25 mg/kg
Format: ADME, organism-based
Applied Conditions: in vivo

O=S(=O)(NC[C@H](O)CN1c2ccccc2CCc2ccccc21)c1ccc(OC(F)(F)F)cc1 :: 36%

Alright, here's another compound for you.
Tell me the measured bioavailability of O=S(=O)(NCCCN1c2ccccc2CCc2ccc(Cl)cc21)c1ccc(OC(F)(F)F)cc1 , please.
15%
